Assay: collision cross section in nitrogen (drift tube, single-field); higher = larger gas-phase ion size;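 also: chemical standards at 10 µM analysed by drift tube IMS-QTOF MS in about 3.95 torr nitrogen, mean of duplicate injections differing ≤1%, mass error below 10 ppm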
Details: ion type: [M+H]; ion source: ESI; ion mode: Positive
Structures can show the parent of a compound that is named as a salt.
QUANTITY_NAME: collision cross section in nitrogen (Å²)

>>> df
                                    compound  measurement_unit  measured_value
 0  CC1=Nc2ccc3ccccc3c2C1(C)C [1,1,2-Trimethyl-1H-benzo[e]indole]                Å²           146.7
 1  COc1cc2c(cc1OC)[C@@]13CCN4CC5=CCO[C@H]6CC(=O)N2[C@H]1[C@H]6[C@H]5C[C@H]43 [Brucine]                Å²           194.1
 2  CNCCCC12CCC(c3ccccc31)c1ccccc12 [Maprotiline hydrochloride]                Å²           164.3
 3  Cc1cccc2sc3nncn3c12 [2,7,8,9-Tricyclazole]                Å²             134
 4  CO/N=C(/C(=O)OC)c1ccccc1CO/N=C(\C)c1cccc(C(F)(F)F)c1 [Trifloxystrobin]                Å²           187.2
 5  C(=C(c1ccccc1)c1ccccc1)c1ccccc1 [Triphenylethylene]                Å²           153.5
 6      CCCCOc1ccc(N)cc1 [4-Butyloxyaniline]                Å²           153.5
 7  c1ccc2c(c1)ccc1ncccc12 [Benzo(f)quinoline]                Å²           134.8
 8  CSc1nc(NC2CC2)nc(NC(C)(C)C)n1 [Cybutryne]                Å²           162.4
 9  OC12N=C(c3ccccc3)SC1Cc1cc(Cl)ccc12 (stereo not drawn) [HMR1426]                Å²           167.9
10  CCCCN(CCCC)CCCCCCN(CCCC)CCCC [N,N,N',N'-Tetrabutyl-1,6-hexanediamine]                Å²           193.6
11     CCn1nc(C)c2c1C(=O)NCC(c1ccc(O)cc1)=N2                Å²           170.3
12  CCCCCC(C)OC(=O)COc1ccc(Cl)c2cccnc12 (stereo not drawn) [Cloquintocet-mexyl]                Å²           181.9
13  CC(=O)Nc1ccc2c(c1)Cc1cc(NC(C)=O)ccc1-2 [2,7-Acetylaminofluorene]                Å²           175.7
14  Cc1cc2c3c(c1)C(c1ccccc1)=N[C@@H](NC(=O)c1ccncc1)C(=O)N3CC2 [CI-1018]                Å²           200.9
15  FC(F)(F)c1ccc(Cl)cc1 [1-Chloro-4-(trifluoromethyl)benzene]                Å²           142.6
16  Cn1cc(-c2ccccc2)c(=O)c(-c2cccc(C(F)(F)F)c2)c1 [1-Methyl-3-phenyl-5-(3-(trifluoromethyl)phenyl)-4-pyridone]                Å²           179.8
17  CC(C)(C(=O)c1cccnc1)c1cccnc1 [Metyrapone]                Å²           156.2

###

Assay: collision cross section in nitrogen (drift tube, single-field); higher = larger gas-phase ion size
Details: ion type: [M-H]; ion source: ESI; ion mode: Negative
Counter-ions that a name gives are not always drawn.
QUANTITY_NAME: collision cross section in nitrogen (Å²)

MOLECULE	QUANTITY_NAME	MEASURED_VALUE
O=C1OC2(c3ccccc31)c1cc(Br)c(O)c(Br)c1Oc1c2cc(Br)c(O)c1Br [2',4',5',7'-Tetrabromofluorescein]	collision cross section in nitrogen	208.7
O=C(CCCN1CCC(O)(c2ccc(Cl)cc2)CC1)c1ccc(F)cc1 [Haloperidol]	collision cross section in nitrogen	190.2
C=C(C)CS(=O)(=O)O [Sodium 2-methylprop-2-ene-1-sulfonate]	collision cross section in nitrogen	124.2
Oc1ccc(C2(c3ccc(O)c(C4CCCCC4)c3)CCCCC2)cc1C1CCCCC1 [1,1-Bis(3-cyclohexyl-4-hydroxyphenyl)cyclohexane]	collision cross section in nitrogen	217.2
COCc1cnc(C2=NC(C)(C(C)C)C(=O)N2)c(C(=O)O)c1 (centres undefined) [Imazamox]	collision cross section in nitrogen	178.2
Cc1ccccc1S(=O)(=O)O [2-Methylbenzenesulfonic acid]	collision cross section in nitrogen	131.9
COC(=O)Nc1nc2cc(S(=O)c3ccccc3)ccc2[nH]1 (centres undefined) [Oxfendazole]	collision cross section in nitrogen	177
Cc1ccc2c(c1N)C(=O)c1ccccc1C2=O [1-Amino-2-methylanthraquinone]	collision cross section in nitrogen	150.1
O=C1OC2(c3ccccc31)c1ccc(O)c(Br)c1Oc1c2ccc(O)c1Br [C.I. Solvent Red 72]	collision cross section in nitrogen	190.5
Cc1cc(=O)oc2cc(N(C)C)ccc12 [7-(Dimethylamino)-4-methylcoumarin]	collision cross section in nitrogen	148.6
Nc1c(S(=O)(=O)O)cc(Br)c2c1C(=O)c1ccccc1C2=O	collision cross section in nitrogen	169.4
OC[C@H]1O[C@@H]2O[C@H]3[C@H](O)[C@@H](O)[C@@H](O[C@H]4[C@H](O)[C@@H](O)[C@@H](O[C@H]5[C@H](O)[C@@H](O)[C@@H](O[C@H]6[C@H](O)[C@@H](O)[C@@H](O[C@H]7[C@H](O)[C@@H](O)[C@@H](O[C@H]1[C@H](O)[C@H]2O)O[C@@H]7CO)O[C@@H]6CO)O[C@@H]5CO)O[C@@H]4CO)O[C@@H]3CO [alpha-Cyclodextrin]	collision cross section in nitrogen	286.4
Nc1cc([N+](=O)[O-])ccc1Cl [2-Chloro-5-nitroaniline]	collision cross section in nitrogen	125.5
Oc1ccnc(O)c1 [2,4-Dihydroxypyridine]	collision cross section in nitrogen	118.5
CC/C(=C(/CC)c1ccc(O)cc1)c1ccc(O)cc1 [Diethylstilbestrol]	collision cross section in nitrogen	176.2
C[C@H]1O[C@@H](O[C@H]2[C@@H](O)C[C@H](O[C@H]3[C@@H](O)C[C@H](O[C@H]4CC[C@@]5(C)[C@H](CC[C@@H]6[C@@H]5C[C@@H](O)[C@]5(C)[C@@H](C7=CC(=O)OC7)CC[C@]65O)C4)O[C@@H]3C)O[C@@H]2C)C[C@H](O)[C@@H]1O [Digoxin]	collision cross section in nitrogen	269.7
O=C1NC(=O)C(c2ccccc2)(c2ccccc2)N1 [5,5-Diphenylhydantoin]	collision cross section in nitrogen	160
O=C(O)c1cccc(C(=O)O)c1 [1,3-Benzenedicarboxylic acid]	collision cross section in nitrogen	133.2
COc1cc(/C=C/C(=O)CC(=O)/C=C/c2ccc(O)c(OC)c2)ccc1O [Curcumin]	collision cross section in nitrogen	187.7
O=C1CCc2ccccc2O1 [3,4-Dihydrocoumarin]	collision cross section in nitrogen	127.6
CC(=O)c1c(O)c(C)c(O)c2c1OC1=CC(=O)C(C(C)=O)C(=O)C12C (centres undefined) [Usnic acid]	collision cross section in nitrogen	177.1
Cc1ccc(C)c(S(=O)(=O)O)c1 [2,5-Dimethylbenzenesulfonic acid monohydrate]	collision cross section in nitrogen	138.2
COc1cccc(C(=O)NN(C(=O)c2cc(C)cc(C)c2)C(C)(C)C)c1C [Methoxyfenozide]	collision cross section in nitrogen	194.2
CCOc1ccc2[nH]cc(C(=O)NCc3ccccc3)c(=O)c2n1	collision cross section in nitrogen	183.9
Cc1ccc(S(=O)(=O)Oc2ccc(N=Nc3ccc(-c4ccc(N=Nc5c(O)ccc6cc(S(=O)(=O)O)cc(S(=O)(=O)O)c56)c(C)c4)cc3C)cc2)cc1 [C.I. Acid Red 114]	collision cross section in nitrogen	317.8
Cc1cc(C2(c3ccc(O)c(C)c3)C(=O)Nc3ccccc32)ccc1O [1,3-Dihydro-3,3-bis(4-hydroxy-m-tolyl)-2H-indol-2-one]	collision cross section in nitrogen	190.8
Cn1c(=S)[nH]c2ccccc21 [1-Methyl-1,3-dihydro-2H-benzimidazole-2-thione]	collision cross section in nitrogen	131.4
Nc1c2ccccc2nc2ccccc12 [9-Aminoacridine hydrochloride monohydrate]	collision cross section in nitrogen	139.3
CCCCCCCCCC(=O)O [Decanoic acid]	collision cross section in nitrogen	149.5

###

Assay: collision cross section in nitrogen (drift tube, single-field); higher = larger gas-phase ion size
Conditions: ion type: [M+H]; ion source: ESI; ion mode: Positive
A collection of compounds and their measured collision cross section in nitrogen
QUANTITY_NAME: collision cross section in nitrogen

In [3]: df
Out[3]:
                                   compound                        quantity_name  measured_value
0  COc1ccccc1Oc1c(NS(=O)(=O)c2ccc(C(C)(C)C)cc2)nc(-c2ncccn2)nc1OCCO [Bosentan hydrate]  collision cross section in nitrogen        229.4 Å²
1  Cc1cccc(Nc2cc(Cl)nc(SCC(=O)O)n2)c1C [[4-Chloro-6-(2,3-xylidino)-2-pyrimidinylthio]acetic acid]  collision cross section in nitrogen        175.5 Å²
2  Cc1ccccc1OP(=O)(Oc1ccccc1)Oc1ccccc1 [Cresyl diphenyl phosphate]  collision cross section in nitrogen          178 Å²
3     O=c1cc(-c2ccccc2)oc2ccccc12 [Flavone]  collision cross section in nitrogen        146.5 Å²
